Values compiled from PubChem BioAssay AID179.

System: CEM cells HIV-1 protection, formazan growth assay
PROTOCOL_SUMMARY: NCI AIDS Antiviral Assay;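 active = compounds giving half or more protection of infected cells from virus-caused growth loss, again on retest; inactive = the rest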
Outcome codes: TRUE = active, FALSE = inactive

- O=S1(=O)Cc2nc3ccccc3n2C1c1c(F)cccc1F (configuration not stated): TRUE
- CCOC(=O)/C(Cl)=C1\SN(C(=O)OCC)N=C1C: FALSE
- CC1(C)/C(=C/N=O)N(O)C(C)(C)N1O: FALSE
- CC(C)OC(=O)c1ccc(NCc2cc(O)ccc2O)cc1Cl: FALSE
- C[N+]1(C)C/C(=C/c2ccc(F)cc2)C(=O)/C(=C\c2ccc(F)cc2)C1: FALSE
- Cc1cc2nc(CCC(=O)O)c(=O)[nH]c2cc1C: FALSE
- CCn1c(SCC(=O)NNC(=S)NC)nc2ccccc2c1=O: FALSE
- NC(N)=NNCCOc1c(Cl)cccc1Cl: FALSE
- C(=C\c1ccccc1)/Cn1nc(-c2ccccc2)nc1-c1cnccn1: FALSE
- CC1(C)CNC[C@](C)(OCCO)C(=O)[N-]C(C)(C)CNC[C@@](C)(OCCO)C(=O)[N-]1.[Ni+2]: FALSE
- CCOC(=O)C(=O)Nc1cccc(Cl)c1C: FALSE
- CCN1CCCCC(=N\O)/C(=N/O)CCCC1: FALSE
- NC(=O)C(=CN1C(=O)/C(=C\c2cccc(O)c2)SC1=S)C(N)=O: FALSE
- COC(=O)C1=C(C)NC2(C)SC1C(C)C2C(=O)OC (configuration not stated): FALSE
- O=S(=O)(c1ccccc1)n1c2ccc(Br)cc2c2nc3ccccc3nc21: FALSE
- CCN(CCCN(CC)C(=O)N[C@@H](Cc1ccccc1)C(=O)NC)C(=O)N[C@@H](Cc1ccccc1)C(=O)NC: FALSE
- C=C(C)[C@@H]1CC[C@]2(C(=O)O)CC[C@]3(C)[C@H](CCC4[C@@]5(C)CC[C@H](C(=O)/C=C/c6ccc(O)c(O)c6)C(C)(C)[C@@H]5CC[C@]43C)[C@@H]12 (some centres not stated): FALSE
- COc1ccc(/C=C/C(=O)c2ccccc(=O)c2O)cc1: FALSE
- CC(C)CCCC(C)[C@H]1CCC2C3C/C(=C\C#N)[C@H]4CCCC[C@]4(C)C3CC[C@@]21C (some centres not stated): FALSE
- c1ccc(CN2CCc3[nH]c4ccccc4c3C2)cc1: FALSE
- [N-]=[N+]=C1C(=O)NC(=O)N2C3CC(O)C(COC12)O3 (configuration not stated): FALSE
- NC1=C(c2ccccc2)C(=O)c2ccccc21: FALSE

* * *

Test system: CEM cells HIV-1 protection, formazan growth assay
PROTOCOL_SUMMARY: NCI AIDS Antiviral Assay
EXPERIMENTAL_CONTEXT: measured here: growth of uninfected CEM cells
Entries and their measured IC50 follow.
REPORTED_METRIC: IC50 (µM)

- COC12C=CC(CC1)C1=C2C(=O)c2nc(C)c(C)nc2C1=O (stereo unspecified): 39.8
- CC1(C)[C@H](C(=O)O)N2C(=O)[C@@H](NS(=O)(=O)c3ccc([N+](=O)[O-])cc3)[C@H]2S1(=O)=O: 195
- CN(N)P(=O)(c1ccccc1)N(C)N: 501

* * *

Tested on: CEM cells HIV-1 protection, formazan growth assay
PROTOCOL_SUMMARY: NCI AIDS Antiviral Assay
EXPERIMENTAL_CONTEXT: measured here: growth of uninfected CEM cells
Method: The ability of compounds to protect human CEM cells from HIV-1 infection is measured as a screen for new compounds capable of inhibiting the HIV virus. Five concentrations of drug were tested on uninfected and infected cells and cell growth was measured using a soluble formazan assay. […] Compounds that provided at least 50% protection were retested. Compounds that provided at least 50% protection on retest were listed as moderately active. […]
REPORTED_METRIC: log10(IC50) (log10 of the value in µM)

- CCC12CCCNC1c1c(n(C)c3ccccc13)C(C(=O)OC)C2 (stereo not drawn): 1.54
- COc1ccc(C[C@H]2C(=O)OC[C@@H]2Cc2ccc(OC)c(OC)c2)cc1: 1.38
- COC(=O)c1cc(O)ccc1NC(=O)c1ccc(O)cc1: 2.56
- CCN(CC)CC(=O)Nc1ccc(Cl)cc1C(O)c1ccccc1 (stereo not drawn): 2.08
- CCCCN(CCCC)CCCCCCCN1CCCc2cc(OC)ccc21: 1.25
- C=CCC12CC(=O)CCC1c1ccc(OC)cc1C2=O (stereo not drawn): 2.15
- CCc1ccccc1N1CCN(C(=O)c2cc(OC)c(OC)c(OC)c2)CC1: -1.53
- CC12C=CC(C)(C3C(=O)C4C(C(=O)C31)C1(C)C=CC4(C)S1=O)S2=O (stereo not drawn): 1.78
- O=C(CCC(NC(=O)OCc1ccccc1)C(=O)OCc1ccccc1)Nc1ccc(OCc2ccccc2)cc1 (stereo not drawn): 2.10
- O=C(C=P(c1ccccc1)(c1ccccc1)c1ccccc1)c1ccccc1-c1ccccc1C(=O)C=P(c1ccccc1)(c1ccccc1)c1ccccc1: -0.97
- COC(=O)C1=C(C(=O)OC)SC2(S1)C(C(=O)OC)=C(C(=O)OC)Sc1c2ssc1=O: -1.24
- COc1ccc(/C=C\c2cc(OC)c(OC)c(OC)c2)cc1OC(=O)CCC(=O)O: -3.25
- CC(=O)Nc1ccccc1NC1CC(C)N(c2ccccc2)N1C(C)=O (stereo not drawn): 1.51
- O=C(O)CSCc1cc(C(=O)Nc2ccc(/C=C/c3ccc(NC(=O)c4cc(CSCC(=O)O)c5cccnc5c4O)cc3S(=O)(=O)O)c(S(=O)(=O)O)c2)c(O)c2ncccc12: 1.35
- CCN(CC)CCN1C(=O)c2cccc3cc([N+](=O)[O-])cc(c23)C1=O: 0.17
- Cc1cccc(/C=N/NC(=S)NCc2ccccn2)n1: 1.47
- COC1/C=C/OC2(C)Oc3c(C)c(O)c4c(O)c(c(/C=N/N5CCN(Cc6cccc(C(F)(F)F)c6)CC5)c(O)c4c3C2=O)NC(=O)C(C)=C/C=C/C(C)C(O)C(C)C(O)C(C)C(OC(C)=O)C1C (stereo not drawn): 0.84
- CC(C)(C)C(=O)OCOP(=O)(OCOC(=O)C(C)(C)C)OCC1CCC(n2ccc(=O)[nH]c2=O)O1 (stereo not drawn): 1.86
